Exercise: state measured apparent KD of MS2 coat protein for each of the sequences provided.
Test system: MS2 coat protein
measurement description: apparent KD of MS2 coat protein; higher = weaker reporter binding
recorded conditions: Eterna round: R107; input ligand: theophylline 20 uM
Kindly provide the numeric value in nM only, without the unit symbol.

Value of measured apparent KD of MS2 coat protein for the entry ACACAAUACAUGAGGAUCACCCAUGUAUAACGAGGACCGGUACGGCCGCCACUCGAAUACUGUAAUCCUCGGAAUAUUAUGUGAA [JR_ExcTryptA_Sub003] : 56.7

The sequence identified as UGUCAUGGAAACAUGACUGGUUCUACCGGUCGAGGACCGGUACGGCCGCCACUCGGUUGGUGGCACAUGAGGAUCACCCAUGUUA [SS Tryp A #13] registered its apparent KD of MS2 coat protein at 51.8

Data point: AUUUAUUGUCGUGAUACCAGACAUACAUGAGGAUCACCCAUGUUAAGUAACAUUUUUUAGGUCCCUUGGCAGCACUUUUUAAUUA [JR_Nu_SSTheophyB_Sub018] ; apparent KD of MS2 coat protein = 36.1

Entry GCUGUACCAUGAAGGAGCGUCGUUGAUUGAGAAUACACAUGAGGAUCACCCAUGUUUUUAUGACAGGUAGGUCGCAUGGUACAGC [SSAB #16] — recorded apparent KD of MS2 coat protein = 25.1

Entry GCCGCCGGUGCUUCAUUCCCUGAGCGACGGCGAGGACCGGUACGGCCGCCACUCGGCUCGGUACAUGAGGAUCACCCAUGUCUUU [theeternabot_exclusion_MS2_Trp_A_11] ; apparent KD of MS2 coat protein = 58.4

Please fill in: apparent KD of MS2 coat protein reported for GGCCCUGCGAGCGCUCGCAGGGCCGCGGAUACCAGCGAGGUCCAUCGCCCUUGGCAGCCGAACAUGAGGAUCACCCAUGUCGGUC [#1 Same State - Theophylline A Attempt #11 (HarryS)] = 18.7

The sequence listed as AGCGCGAAUAGAUCCAAAGUUAUUAGUGAGCGAGGACCGGUACGGCCGCCACUCGUGGCUCUACAUGAGGAUCACCCAUGUACAU [theeternabot_exclusion_MS2_Trp_A_10] has a reported apparent KD of MS2 coat protein of 234

apparent KD of MS2 coat protein measured on AAGACGGUCGGAAGGAGCGGUACAUGAGGAUCACCCAUGUAUUCCUGGGCAUCCGUAGUGUGCCAGGUAGGUCGCCGAUUGCGGG [XArg-B13] = 91.7

The recorded apparent KD of MS2 coat protein for entry ACAUGAGGAUCACCCAUGUAACGUCUUGAUACCAGACGAGAAGUAGUCCCUUGGCAGCAAAUACGUGAGGGUCACACAUGUGUAA [vvvmullin] equals 34.4

So, GAGAGUGUGUGCGAAAGCACAGAUCUGGAAGGAGCGUAGAAAGAUACAGGUAGGUCGCCGGGACAUGAGGAUCACCCAUGUGUAU [ArgiA-ms2@63] ? Its apparent KD of MS2 coat protein was 52.6

# sequence UACAUGAGGAUCACCCAUGUAUGAAUGGAUACCAGAUAAAAUAAGGUCCCUUGGCAGCUAGUGAAUCGAGGGUGGGUAUCAUGUU [#14 Exclusion-TheophyllineA] ; its apparent KD of MS2 coat protein = 13.7

get_value(item= CGAGCUGACGGAAGGAGCGAAGCCUACUCGGUGUUCCCACAUGAGGAUCACCCAUGUGGGCUUCAGGUAGGUCGCCGAACAGUCG [Vecequlala] , readout=apparent KD of MS2 coat protein) returns 61

All values here come from the supplement of paper PMC9170038.
